tested on: Rattus norvegicus; assay: Prophylactic antiinflammatory activity against adjuvant arthritic rat at dose of 25 mg/kg in noninjected 2 degree paw.; assay type: functional
Listing of entries alongside the reported inhibition in vivo at 25 mg/kg.
readout_name: inhibition in vivo at 25 mg/kg (%)

1) CC(C)=CCSc1cc(=O)n2c3c(nc2n1Cc1ccccc1)N(C)CN(C)C3=O :: 8
2) CN1CN(C)c2nc3n(Cc4ccccc4)c(O)c(C4C=CCCC4)c(=O)n3c2C1=O (stereo not drawn) :: 15
3) Cc1c(O)n(Cc2ccccc2)c2nc3c(n2c1=O)C(=O)N(C)CN3C :: 22

----------
assay: Inhibition of guinea pig Phosphodiesterase; design: species or system Cavia porcellus
readout_name: IC50

1. Cn1c(=O)c2[nH]cnc2n(C)c1=O :: 30 µM
